- protocol-details: Phase I first-in-human study, pharmacokinetics after single ascending subcutaneous doses in healthy volunteers
- Type: in vivo
- assay-conditions: human, plasma; single SC dose 4 mg; mean
Bridge positions count the residues as written; N and C are the ends. Square brackets hold non-standard residues; d marks the D form. Peptide text beside a SMILES is read from it. * marks the point of attachment. Phe(2-CONH2) = NC(=O)c1ccccc1C[C@H](N)C(=O)O; Orn(iPr) = CC(C)NCCC[C@H](N)C(=O)O; Oxazole2carbonyl = O=C(c1ncco1)*; 3Pal = N[C@@H](Cc1cccnc1)C(=O)O
value-type: AUC(0-t) (ng·h/mL)
Supply the numeric figure in ng·h/mL, leaving out any unit text.

[Q] Note AUC(0-t) for the molecule shown: CC(C)NCCC[C@@H]1NC(=O)[C@@H](NC(=O)[C@H](Cc2ccccc2C(N)=O)NC(=O)[C@H](NC(=O)c2ncco2)C(C)C)CSSC[C@@H](C(=O)N[C@@H](Cc2cccnc2)C(N)=O)NC(=O)[C@H](Cc2ccccc2)NC(=O)[C@@H]2CCCN2C(=O)CNC(=O)[C@H](C(C)C)NC(=O)[C@H](CC(=O)O)NC1=O [AXN-001] (Oxazole2carbonyl-[dV][Phe(2-CONH2)]C[Orn(iPr)]DVGPFC[3Pal]-NH2; disulfide 3-10)
[A] 337

----------
- protocol-details: Phase I first-in-human study, pharmacokinetics after single ascending subcutaneous doses in healthy volunteers
- Type: in vivo
- assay-conditions: human, plasma; single SC dose 1 mg; mean
Bridge positions count the residues as written; N and C are the ends. Square brackets hold non-standard residues; d marks the D form. Peptide text beside a SMILES is read from it. * marks the point of attachment. Phe(2-CONH2) = NC(=O)c1ccccc1C[C@H](N)C(=O)O; Orn(iPr) = CC(C)NCCC[C@H](N)C(=O)O; Oxazole2carbonyl = O=C(c1ncco1)*; 3Pal = N[C@@H](Cc1cccnc1)C(=O)O
value-type: AUC(0-t) (ng·h/mL)
Supply the numeric figure in ng·h/mL, leaving out any unit text.

[Q] Note AUC(0-t) for the compound shown: CC(C)NCCC[C@@H]1NC(=O)[C@@H](NC(=O)[C@H](Cc2ccccc2C(N)=O)NC(=O)[C@H](NC(=O)c2ncco2)C(C)C)CSSC[C@@H](C(=O)N[C@@H](Cc2cccnc2)C(N)=O)NC(=O)[C@H](Cc2ccccc2)NC(=O)[C@@H]2CCCN2C(=O)CNC(=O)[C@H](C(C)C)NC(=O)[C@H](CC(=O)O)NC1=O [AXN-001] (Oxazole2carbonyl-[dV][Phe(2-CONH2)]C[Orn(iPr)]DVGPFC[3Pal]-NH2; disulfide 3-10)
[A] 96.1

----------
- protocol-details: Phase I first-in-human study, pharmacokinetics after single ascending subcutaneous doses in healthy volunteers
- Format: in vivo
- assay-conditions: human, plasma; single SC dose 8 mg; nominal time 0.75 h; mean; read-out: Plasma Concentration AXN-001
- Protocol: For Phase I clinical studies, the 32 mg/mL pharmaceutical composition was dosed subcutaneously. […] Participants were administered a single dose (0.5 mL) of AXN-001 or placebo via subcutaneous (SC) injection into the abdomen. […] Individual plasma concentrations of ANX-001 were determined and used for analyses. Pharmacokinetic (PK) parameters of AXN-001 were determined using Phoenix WinNonlin version 8.3. […]
Bridge positions count the residues as written; N and C are the ends. Square brackets hold non-standard residues; d marks the D form. Peptide text beside a SMILES is read from it. * marks the point of attachment. Phe(2-CONH2) = NC(=O)c1ccccc1C[C@H](N)C(=O)O; Orn(iPr) = CC(C)NCCC[C@H](N)C(=O)O; Oxazole2carbonyl = O=C(c1ncco1)*; 3Pal = N[C@@H](Cc1cccnc1)C(=O)O
value-type: level at 0.75 h (ng/mL)
Supply the numeric figure in ng/mL, leaving out any unit text.

[Q] Note level at 0.75 h for the compound shown: CC(C)NCCC[C@@H]1NC(=O)[C@@H](NC(=O)[C@H](Cc2ccccc2C(N)=O)NC(=O)[C@H](NC(=O)c2ncco2)C(C)C)CSSC[C@@H](C(=O)N[C@@H](Cc2cccnc2)C(N)=O)NC(=O)[C@H](Cc2ccccc2)NC(=O)[C@@H]2CCCN2C(=O)CNC(=O)[C@H](C(C)C)NC(=O)[C@H](CC(=O)O)NC1=O [AXN-001] (Oxazole2carbonyl-[dV][Phe(2-CONH2)]C[Orn(iPr)]DVGPFC[3Pal]-NH2; disulfide 3-10)
[A] 240

----------
- protocol-details: Phase I first-in-human study, pharmacokinetics after single ascending subcutaneous doses in healthy volunteers
- Type: in vivo
- assay-conditions: human, plasma; single SC dose 2 mg; mean
Bridge positions count the residues as written; N and C are the ends. Square brackets hold non-standard residues; d marks the D form. Peptide text beside a SMILES is read from it. * marks the point of attachment. Phe(2-CONH2) = NC(=O)c1ccccc1C[C@H](N)C(=O)O; Orn(iPr) = CC(C)NCCC[C@H](N)C(=O)O; Oxazole2carbonyl = O=C(c1ncco1)*; 3Pal = N[C@@H](Cc1cccnc1)C(=O)O
value-type: AUC(0-inf) (ng·h/mL)
Supply the numeric figure in ng·h/mL, leaving out any unit text.

[Q] Note AUC(0-inf) for the compound shown: CC(C)NCCC[C@@H]1NC(=O)[C@@H](NC(=O)[C@H](Cc2ccccc2C(N)=O)NC(=O)[C@H](NC(=O)c2ncco2)C(C)C)CSSC[C@@H](C(=O)N[C@@H](Cc2cccnc2)C(N)=O)NC(=O)[C@H](Cc2ccccc2)NC(=O)[C@@H]2CCCN2C(=O)CNC(=O)[C@H](C(C)C)NC(=O)[C@H](CC(=O)O)NC1=O [AXN-001] (Oxazole2carbonyl-[dV][Phe(2-CONH2)]C[Orn(iPr)]DVGPFC[3Pal]-NH2; disulfide 3-10)
[A] 167

----------
- protocol-details: Phase I first-in-human study, pharmacokinetics after single ascending subcutaneous doses in healthy volunteers
- Format: in vivo
- assay-conditions: human, plasma; single SC dose 8 mg; mean
Bridge positions count the residues as written; N and C are the ends. Square brackets hold non-standard residues; d marks the D form. Peptide text beside a SMILES is read from it. * marks the point of attachment. Phe(2-CONH2) = NC(=O)c1ccccc1C[C@H](N)C(=O)O; Orn(iPr) = CC(C)NCCC[C@H](N)C(=O)O; Oxazole2carbonyl = O=C(c1ncco1)*; 3Pal = N[C@@H](Cc1cccnc1)C(=O)O
value-type: AUC(0-t) (ng·h/mL)
Supply the numeric figure in ng·h/mL, leaving out any unit text.

[Q] Note AUC(0-t) for the compound shown: CC(C)NCCC[C@@H]1NC(=O)[C@@H](NC(=O)[C@H](Cc2ccccc2C(N)=O)NC(=O)[C@H](NC(=O)c2ncco2)C(C)C)CSSC[C@@H](C(=O)N[C@@H](Cc2cccnc2)C(N)=O)NC(=O)[C@H](Cc2ccccc2)NC(=O)[C@@H]2CCCN2C(=O)CNC(=O)[C@H](C(C)C)NC(=O)[C@H](CC(=O)O)NC1=O [AXN-001] (Oxazole2carbonyl-[dV][Phe(2-CONH2)]C[Orn(iPr)]DVGPFC[3Pal]-NH2; disulfide 3-10)
[A] 585

----------
- protocol-details: Phase I first-in-human study, pharmacokinetics after single ascending subcutaneous doses in healthy volunteers
- Assay type: in vivo
- assay-conditions: human, plasma; single SC dose 16 mg; nominal time 0.25 h; mean; read-out: Plasma Concentration AXN-001
Bridge positions count the residues as written; N and C are the ends. Square brackets hold non-standard residues; d marks the D form. Peptide text beside a SMILES is read from it. * marks the point of attachment. Phe(2-CONH2) = NC(=O)c1ccccc1C[C@H](N)C(=O)O; Orn(iPr) = CC(C)NCCC[C@H](N)C(=O)O; Oxazole2carbonyl = O=C(c1ncco1)*; 3Pal = N[C@@H](Cc1cccnc1)C(=O)O
value-type: level at 0.25 h (ng/mL)
Supply the numeric figure in ng/mL, leaving out any unit text.

[Q] Note level at 0.25 h for the compound shown: CC(C)NCCC[C@@H]1NC(=O)[C@@H](NC(=O)[C@H](Cc2ccccc2C(N)=O)NC(=O)[C@H](NC(=O)c2ncco2)C(C)C)CSSC[C@@H](C(=O)N[C@@H](Cc2cccnc2)C(N)=O)NC(=O)[C@H](Cc2ccccc2)NC(=O)[C@@H]2CCCN2C(=O)CNC(=O)[C@H](C(C)C)NC(=O)[C@H](CC(=O)O)NC1=O [AXN-001] (Oxazole2carbonyl-[dV][Phe(2-CONH2)]C[Orn(iPr)]DVGPFC[3Pal]-NH2; disulfide 3-10)
[A] 139

----------
- protocol-details: Phase I first-in-human study, pharmacokinetics after single ascending subcutaneous doses in healthy volunteers
- Assay type: in vivo
- assay-conditions: human, plasma; single SC dose 16 mg; nominal time 2 h; mean; read-out: Plasma Concentration AXN-001
Bridge positions count the residues as written; N and C are the ends. Square brackets hold non-standard residues; d marks the D form. Peptide text beside a SMILES is read from it. * marks the point of attachment. Phe(2-CONH2) = NC(=O)c1ccccc1C[C@H](N)C(=O)O; Orn(iPr) = CC(C)NCCC[C@H](N)C(=O)O; Oxazole2carbonyl = O=C(c1ncco1)*; 3Pal = N[C@@H](Cc1cccnc1)C(=O)O
value-type: level at 2 h (ng/mL)
Supply the numeric figure in ng/mL, leaving out any unit text.

[Q] Note level at 2 h for the molecule shown: CC(C)NCCC[C@@H]1NC(=O)[C@@H](NC(=O)[C@H](Cc2ccccc2C(N)=O)NC(=O)[C@H](NC(=O)c2ncco2)C(C)C)CSSC[C@@H](C(=O)N[C@@H](Cc2cccnc2)C(N)=O)NC(=O)[C@H](Cc2ccccc2)NC(=O)[C@@H]2CCCN2C(=O)CNC(=O)[C@H](C(C)C)NC(=O)[C@H](CC(=O)O)NC1=O [AXN-001] (Oxazole2carbonyl-[dV][Phe(2-CONH2)]C[Orn(iPr)]DVGPFC[3Pal]-NH2; disulfide 3-10)
[A] 277
